tested.target: NAD-dependent protein deacetylase sirtuin-2 (Homo sapiens) (UniProt Q8IXJ6)
Sequence (whole entry): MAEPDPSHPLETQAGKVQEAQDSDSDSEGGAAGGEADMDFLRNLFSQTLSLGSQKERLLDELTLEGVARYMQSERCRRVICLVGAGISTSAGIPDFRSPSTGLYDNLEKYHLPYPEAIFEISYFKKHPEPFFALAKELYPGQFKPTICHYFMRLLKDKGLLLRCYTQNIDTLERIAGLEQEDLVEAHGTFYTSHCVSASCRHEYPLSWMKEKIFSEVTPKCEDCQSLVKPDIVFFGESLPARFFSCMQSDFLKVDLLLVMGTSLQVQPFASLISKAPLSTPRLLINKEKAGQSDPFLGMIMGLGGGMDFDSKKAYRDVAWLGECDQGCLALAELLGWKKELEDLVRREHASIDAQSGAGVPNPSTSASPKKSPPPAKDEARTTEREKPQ
test.summary: Inhibition of human SIRT2 at 200 uM
quantity: inhibition (%)

Example entries begin here.
| smiles.structure | tested.target | inhibition (%) |
| --- | --- | --- |
| O=C(NNC(=O)c1nc(-c2cccc3ccccc23)no1)Nc1cccc(C(F)(F)F)c1 | NAD-dependent protein deacetylase sirtuin-2 (Homo sapiens) (UniProt Q8IXJ6) | 51 |
| CC(C)(C)c1ccc(-c2noc(CCCC(=O)Nc3cccc(C(F)(F)F)c3)n2)cc1 | NAD-dependent protein deacetylase sirtuin-2 (Homo sapiens) (UniProt Q8IXJ6) | 0 |
| O=C(NNC(=S)Nc1cccc(C(F)(F)F)c1)c1nc(-c2cccc3ccccc23)no1 | NAD-dependent protein deacetylase sirtuin-2 (Homo sapiens) (UniProt Q8IXJ6) | 56 |
| O=C(NNC(=S)Nc1ccc(F)cc1)c1nc(-c2ccccc2)no1 | NAD-dependent protein deacetylase sirtuin-2 (Homo sapiens) (UniProt Q8IXJ6) | 22 |

1 = CC(C)(C)c1ccc(-c2noc(C(=O)NNC(=S)Nc3cccc(C(F)(F)F)c3)n2)cc1
2 = CC(C)(C)c1ccc(-c2noc(C(=O)NCC(=O)Nc3cccc(C(F)(F)F)c3)n2)cc1
3 = O=C(NNC(=S)Nc1ccc(C(F)(F)F)cc1)c1nc(-c2cccnc2)no1
4 = CC(C)(C)c1ccc(-c2noc(C(=O)NNC(=O)Nc3cccc([N+](=O)[O-])c3)n2)cc1
Q. # rank_down: sort by inhibition, max first Respond with the label ranking, as requested.
A. 1, 4, 2, 3
(1: 87%, 4: 39%, 2: 18%, 3: -4%)

====

tested.target: NAD-dependent protein deacetylase sirtuin-1 (Homo sapiens) (UniProt Q96EB6)
Sequence (whole entry): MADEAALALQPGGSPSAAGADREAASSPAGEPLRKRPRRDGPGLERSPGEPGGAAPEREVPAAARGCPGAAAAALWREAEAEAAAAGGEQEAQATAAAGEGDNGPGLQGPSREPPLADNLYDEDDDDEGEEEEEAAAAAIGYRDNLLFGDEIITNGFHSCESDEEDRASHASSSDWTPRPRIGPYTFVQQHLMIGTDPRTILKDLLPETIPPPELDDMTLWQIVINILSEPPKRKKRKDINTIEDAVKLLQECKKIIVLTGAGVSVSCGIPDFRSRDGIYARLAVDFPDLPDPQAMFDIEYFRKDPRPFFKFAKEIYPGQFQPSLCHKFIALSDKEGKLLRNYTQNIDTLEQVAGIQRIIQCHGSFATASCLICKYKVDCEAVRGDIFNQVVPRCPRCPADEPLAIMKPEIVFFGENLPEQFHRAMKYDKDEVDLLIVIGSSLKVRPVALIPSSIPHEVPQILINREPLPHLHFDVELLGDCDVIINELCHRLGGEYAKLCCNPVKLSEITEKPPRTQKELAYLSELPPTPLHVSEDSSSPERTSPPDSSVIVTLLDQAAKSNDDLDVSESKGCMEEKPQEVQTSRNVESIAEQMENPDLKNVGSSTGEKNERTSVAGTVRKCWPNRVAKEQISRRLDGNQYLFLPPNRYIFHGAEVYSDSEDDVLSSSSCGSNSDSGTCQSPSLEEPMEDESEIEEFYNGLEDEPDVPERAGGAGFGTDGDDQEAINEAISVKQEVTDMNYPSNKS
test.summary: Inhibition of human SIRT1 at 200 uM
quantity: inhibition (%)

Worked set:
| smiles.structure | tested.target | inhibition [%] |
| --- | --- | --- |
| CC(C)(C)c1ccc(-c2noc(C(=O)NNC(=S)Nc3ccccc3)n2)cc1 | NAD-dependent protein deacetylase sirtuin-1 (Homo sapiens) (UniProt Q96EB6) | -2 |
| CC(C)(C)OC(=O)Nc1cccc(-c2noc(C(=O)NNC(=S)Nc3ccc(C(F)(F)F)cc3)n2)c1 | NAD-dependent protein deacetylase sirtuin-1 (Homo sapiens) (UniProt Q96EB6) | 69 |
| O=C(NNC(=S)Nc1ccc(F)cc1)c1nc(-c2cccc3ccccc23)no1 | NAD-dependent protein deacetylase sirtuin-1 (Homo sapiens) (UniProt Q96EB6) | 10 |
| CC(C)(C)c1ccc(-c2noc(C(=O)NCC(=O)Nc3cccc(C(F)(F)F)c3)n2)cc1 | NAD-dependent protein deacetylase sirtuin-1 (Homo sapiens) (UniProt Q96EB6) | 20 |
| CC(C)(C)c1ccc(-c2noc(C(=O)NNC(=S)Nc3ccc(C(F)(F)F)cc3)n2)cc1 | NAD-dependent protein deacetylase sirtuin-1 (Homo sapiens) (UniProt Q96EB6) | 70 |

I = CC(C)(C)c1ccc(-c2noc(C(=O)NNC(=O)Nc3cccc([N+](=O)[O-])c3)n2)cc1
II = O=C(NNC(=O)c1nc(-c2cccc3ccccc23)no1)Nc1cccc(C(F)(F)F)c1
Q. Sorting ascending by inhibition, which comes first: I or II ? State your choice using its label.
A. II

====

tested.target: NAD-dependent protein deacetylase sirtuin-1 (Homo sapiens) (UniProt Q96EB6)
test.summary: Inhibition of human SIRT1 at 200 uM
quantity: inhibition (%)

Before answering, review these 5 worked examples.
| smiles.structure | unit.annotation | inhibition |
| --- | --- | --- |
| O=C(NNC(=S)Nc1cccc(C(F)(F)F)c1)c1nc(-c2cccc3ccccc23)no1 | % | 57 |
| O=C(NNC(=S)Nc1ccc(C(F)(F)F)cc1)c1nc(-c2ccccc2)no1 | % | 29 |
| O=C(CCCc1nc(-c2ccccc2)no1)Nc1ccccc1 | % | 0 |
| CCCCNC(=O)NNC(=O)c1nc(-c2ccc(C(C)(C)C)cc2)no1 | % | 22 |
| CC(C)(C)c1ccc(-c2noc(CCCC(=O)Nc3cccc(C(F)(F)F)c3)n2)cc1 | % | 17 |

a = O=C(NNC(=S)Nc1ccc(C(F)(F)F)cc1)c1nc(-c2cccnc2)no1
b = CC(C)(C)c1ccc(-c2noc(C(=O)NNC(=S)Nc3cccc(C(F)(F)F)c3)n2)cc1
Q. # returns the entry with the larger inhibition; inputs a and b Write the label of whichever entry you select.
A. b
(b: 59%, a: 4%)

A = O=C(NNC(=S)Nc1ccc(C(F)(F)F)cc1)c1nc(-c2cccc3ccccc23)no1
B = CC(C)(C)c1ccc(-c2noc(C(=O)NNC(=O)Nc3ccccc3)n2)cc1
C = O=C(CNC(=O)c1nc(-c2ccccc2)no1)Nc1ccccc1
Q. Please produce an ascending ranking of these compounds based on inhibition. Labels, requested order.
A. B, C, A
(B: 14%, C: 28%, A: 54%)
